System Tested: T1, CAPRIN-1 protein expressed on the membrane surface of human cancer cells (human, UniProt Q14444 2-709)
T1 sequence (looked up): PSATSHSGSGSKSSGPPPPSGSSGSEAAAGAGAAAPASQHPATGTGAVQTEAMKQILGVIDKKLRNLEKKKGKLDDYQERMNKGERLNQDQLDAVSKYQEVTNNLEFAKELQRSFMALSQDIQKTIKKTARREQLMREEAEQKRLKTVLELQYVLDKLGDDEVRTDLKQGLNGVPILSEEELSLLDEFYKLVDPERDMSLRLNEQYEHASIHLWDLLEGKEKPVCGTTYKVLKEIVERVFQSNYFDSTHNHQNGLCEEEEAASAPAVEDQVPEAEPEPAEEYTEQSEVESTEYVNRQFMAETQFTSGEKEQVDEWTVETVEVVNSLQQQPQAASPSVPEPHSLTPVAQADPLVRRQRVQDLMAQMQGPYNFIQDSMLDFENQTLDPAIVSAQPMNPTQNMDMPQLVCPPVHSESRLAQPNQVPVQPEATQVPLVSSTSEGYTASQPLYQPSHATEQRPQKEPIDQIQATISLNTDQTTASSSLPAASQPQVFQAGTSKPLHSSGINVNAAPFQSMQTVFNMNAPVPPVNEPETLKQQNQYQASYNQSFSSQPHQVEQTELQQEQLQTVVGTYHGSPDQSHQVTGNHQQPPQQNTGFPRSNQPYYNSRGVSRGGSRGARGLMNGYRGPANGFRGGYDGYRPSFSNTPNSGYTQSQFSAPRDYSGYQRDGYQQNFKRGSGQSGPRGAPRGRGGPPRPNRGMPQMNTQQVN
Assay Explanation: cell-based or functional assay
Recorded Endpoint: ADCC cytotoxic activity (51Cr release) on HEC-1-A

So for humanized antibody #3 (antibody, V domains shown) VH: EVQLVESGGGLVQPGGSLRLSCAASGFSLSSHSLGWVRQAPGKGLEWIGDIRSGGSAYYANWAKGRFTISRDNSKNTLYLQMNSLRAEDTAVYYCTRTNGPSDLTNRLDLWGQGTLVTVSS VL: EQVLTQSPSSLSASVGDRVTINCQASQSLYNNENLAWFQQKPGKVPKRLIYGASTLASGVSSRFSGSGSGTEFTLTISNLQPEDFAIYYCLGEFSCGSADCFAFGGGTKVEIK , the logged ADCC cytotoxic activity (51Cr release) on HEC-1-A turned out to be ≥ 45%

# ADCC cytotoxic activity (51Cr release) on HEC-1-A of humanized antibody #2 (antibody, V domains shown) VH: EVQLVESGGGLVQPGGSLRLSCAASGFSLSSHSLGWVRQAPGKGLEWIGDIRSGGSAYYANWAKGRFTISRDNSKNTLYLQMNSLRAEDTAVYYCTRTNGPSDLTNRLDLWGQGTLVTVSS VL: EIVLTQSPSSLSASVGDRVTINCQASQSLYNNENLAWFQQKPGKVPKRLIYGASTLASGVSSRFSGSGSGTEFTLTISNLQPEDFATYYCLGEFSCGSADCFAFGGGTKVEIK = ≥ 45%

Please fill in: ADCC cytotoxic activity (51Cr release) on HEC-1-A reported for humanized antibody #10 (antibody, V domains shown) VH: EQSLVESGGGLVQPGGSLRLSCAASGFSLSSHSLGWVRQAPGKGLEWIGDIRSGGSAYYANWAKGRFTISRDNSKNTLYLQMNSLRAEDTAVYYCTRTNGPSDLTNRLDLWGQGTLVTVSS VL: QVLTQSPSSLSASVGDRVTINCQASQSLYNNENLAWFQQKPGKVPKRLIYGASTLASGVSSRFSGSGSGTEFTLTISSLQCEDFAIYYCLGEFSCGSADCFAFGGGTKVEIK = ≥ 52%

These data points were gathered from patent US20160297889A1.
